# Experiment description: Urinary excretion and pharmacokinetics after a single oral dose of 50 mg of pure ecdysterone (LC-MS/MS of urine)
# Type: in vivo, human
# Assay conditions: both sexes, human, in vivo, po, 50 mg, human urine, single oral dose 50 mg ecdysterone, mean ± SD of 12 subjects (14-deoxy-poststerone n = 5); read-out: Cmax (maximum urinary concentration)
Observed property: Cmax (ng/mL)
State just the number; it will be interpreted in ng/mL.

Please list Cmax recorded for the compound CC(C)(O)CC[C@@H](O)[C@](C)(O)[C@H]1CC[C@@]2(O)C3=CC(=O)[C@@H]4C[C@@H](O)[C@@H](O)C[C@]4(C)[C@H]3CC[C@]12C [Ecdysterone]
12100

Ref: paper PMC8227119
